test system: HUNK; details: Compound Concentration (nM):1000;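 also: KINOMEscan scanMAX binding as percent activity remaining versus control; lower means stronger binding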
Assign Percent Control to each entry below.
Express the result in % but write the number alone.

Fill in the blank: the reported Percent Control of NS(=O)(=O)c1ccc(Nc2ncc(-c3ccccc3)o2)cc1 [GW572399X] is ____.
92

Fill in the blank: the reported Percent Control of COc1ccc2[nH]c3c4[nH]c5ccc(OC)cc5c4c4c(c3c2c1)C(=O)NC4=O [GW296115X] is ____.
91

Fill in the blank: the reported Percent Control of COc1cc(C=NNc2ncnc3c2cnn3-c2ccccc2)ccc1O [GW513184X] is ____.
58

Fill in the blank: the reported Percent Control of CN(C)c1cc2c(Nc3ccc4c(cnn4Cc4ccccc4)c3)ncnc2cn1 [GW282974X] is ____.
100

Fill in the blank: the reported Percent Control of COc1cc(/C=N/Nc2ncnc3[nH]ncc23)ccc1O [GW578748X] is ____.
100

Fill in the blank: the reported Percent Control of C[C@@H](Oc1cc(-n2cnc3ccc(OC4CCN(C)CC4)cc32)sc1C(N)=O)c1ccccc1Cl [GSK579289A] is ____.
73

Fill in the blank: the reported Percent Control of Nc1ncnc2occ(-c3ccc(NC(=O)Nc4cc(C(F)(F)F)ccc4F)cc3)c12 [GW770249X] is ____.
97

Fill in the blank: the reported Percent Control of COc1cccc(-c2c[nH]c3c(N/N=C/c4ccncc4)ncnc23)c1 [GW814408X] is ____.
73

Fill in the blank: the reported Percent Control of COc1ccc(COc2ccc(Cc3cnc(N)nc3N)cc2OC)cc1 [GW632580X] is ____.
72

* * *

test system: IKK-beta; construct: gene IKBKB; settings: Compound Concentration (nM):1000
ENDPOINT_LABEL: Percent Control (%)
Express the result in % but write the number alone.

Fill in the blank: the reported Percent Control of NS(=O)(=O)c1ccc(N/N=C2\C(=O)Nc3ccc(-c4cnco4)cc32)cc1 is ____.
76

Fill in the blank: the reported Percent Control of CC(C)COC(=O)c1ccc2c(c1)/C(=C/Nc1ccc(S(N)(=O)=O)cc1)C(=O)N2 [GW416981X] is ____.
100

Fill in the blank: the reported Percent Control of C/C(Nc1ccc(S(N)(=O)=O)cc1)=C1/C(=O)Nc2ccccc21 [GW335962X] is ____.
100

Fill in the blank: the reported Percent Control of COc1cc(C)c(N(C)C(=O)CN(C)C)cc1Nc1nc(Nc2cccc(F)c2C(N)=O)c2cc[nH]c2n1 is ____.
100

Fill in the blank: the reported Percent Control of Nc1ncnc2occ(-c3ccc(NC(=O)Nc4cc(C(F)(F)F)ccc4F)cc3)c12 [GW770249X] is ____.
75

Fill in the blank: the reported Percent Control of CN1CCN(C(=O)c2ccc(NC(=O)Nc3ccc(N(C)c4ccnc(Nc5ccc(CS(C)(=O)=O)cc5)n4)cc3)cc2)CC1.Cl [GW830263A] is ____.
70

Fill in the blank: the reported Percent Control of C[C@@H](Oc1cc(-n2cnc3ccc(OC4CCN(C)CC4)cc32)sc1C(N)=O)c1ccccc1Cl [GSK579289A] is ____.
100

Fill in the blank: the reported Percent Control of CN(C)c1cc2c(Nc3ccc4c(cnn4Cc4ccccc4)c3)ncnc2cn1 [GW282974X] is ____.
100

* * *

system: NEK5; details: Compound Concentration (nM):1000
Assign Percent Control to each entry below.
Express the result in % but write the number alone.

Recall the recorded Percent Control for NS(=O)(=O)c1ccc(N/N=C2\C(=O)Nc3ccc(-c4cnco4)cc32)cc1 with NEK5 and state it.
72

Recall the recorded Percent Control for CC(C)COC(=O)c1ccc2c(c1)/C(=C/Nc1ccc(S(N)(=O)=O)cc1)C(=O)N2 [GW416981X] with NEK5 and state it.
100

Recall the recorded Percent Control for COc1ccccc1-c1cc(/C=C2\C(=O)Nc3ncc(Br)cc32)cc(Br)c1O [GW442130X] with NEK5 and state it.
100

Recall the recorded Percent Control for O=C1Nc2ccc(C(=O)c3ccco3)cc2C1=Cc1cc(Cl)c(O)c(Cl)c1 [GW406108X] with NEK5 and state it.
100

Recall the recorded Percent Control for CCS(=O)(=O)c1ccc(OC)c(Nc2ncc(-c3cccc(OC)c3)o2)c1 [GW580509X] with NEK5 and state it.
100

Recall the recorded Percent Control for Cl.O=C(Nc1ccc(Oc2ccc3[nH]c(NC(=O)c4ccccc4)nc3c2)cc1)Nc1cc(C(F)(F)F)ccc1F [GW709042A] with NEK5 and state it.
95

Recall the recorded Percent Control for Cl.c1ccc(Cc2nc3ccc(Nc4ncnc5ccccc45)cc3[nH]2)cc1 [GR269666A] with NEK5 and state it.
100

Recall the recorded Percent Control for COc1ccc2c(-c3ccnc(Nc4cccc(OC(F)(F)F)c4)n3)cnn2n1 [GW810372X] with NEK5 and state it.
7.6

* * *

system: PAK1; conditions: Compound Concentration (nM):1000
Assign Percent Control to each entry below.
Express the result in % but write the number alone.

Fill in the blank: the reported Percent Control of COc1ccc2[nH]c3c4[nH]c5ccc(OC)cc5c4c4c(c3c2c1)C(=O)NC4=O [GW296115X] is ____.
70

Fill in the blank: the reported Percent Control of O=C1Nc2ccc(C(=O)c3ccco3)cc2C1=Cc1cc(Cl)c(O)c(Cl)c1 [GW406108X] is ____.
100

Fill in the blank: the reported Percent Control of COc1cc(N2CCN(C(C)C)CC2)ccc1Nc1nc(Nc2ccc(F)cc2C(=O)NC[C@@H](O)CO)c2cc[nH]c2n1 [GSK1392956A] is ____.
100

Fill in the blank: the reported Percent Control of CC1=C(C(=O)Nc2ccc3[nH]ncc3c2)C(c2ccc3ccccc3c2)CC(=O)N1 (centres unmarked) [GSK270822A] is ____.
85

Fill in the blank: the reported Percent Control of COc1cc(/C=N/Nc2ncnc3[nH]ncc23)ccc1O [GW578748X] is ____.
100

Fill in the blank: the reported Percent Control of CN(C)c1cc2c(Nc3ccc4c(cnn4Cc4ccccc4)c3)ncnc2cn1 [GW282974X] is ____.
89

Fill in the blank: the reported Percent Control of Cl.O=C(O[C@H]1CN[C@H](C#Cc2cc3ncnc(Nc4ccc5c(cnn5Cc5ccccc5)c4)c3s2)C1)N1CCOCC1 [GSK200398A] is ____.
100

Fill in the blank: the reported Percent Control of O=C(Nc1n[nH]c2nc(-c3ccc(O)cc3)c(Br)cc12)C1CC1 is ____.
89

Fill in the blank: the reported Percent Control of COc1ccccc1-c1cc(/C=C2\C(=O)Nc3ncc(Br)cc32)cc(Br)c1O [GW442130X] is ____.
100

Fill in the blank: the reported Percent Control of NS(=O)(=O)c1ccc(N/N=C2\C(=O)Nc3ccc(C(=O)NCc4ccncc4)cc32)cc1 [GW300657X] is ____.
100

Fill in the blank: the reported Percent Control of NS(=O)(=O)c1ccc(N/N=C2\C(=O)Nc3ccc(Cl)cc32)cc1 [GW280670X] is ____.
100

Fill in the blank: the reported Percent Control of Cc1cc(O)cc(C)c1/C=C/c1cncc(C(N)=O)c1 [GW435821X] is ____.
99

Fill in the blank: the reported Percent Control of C[C@@H](Oc1cc(-n2cnc3ccc(OC4CCN(C)CC4)cc32)sc1C(N)=O)c1ccccc1Cl [GSK579289A] is ____.
100

Fill in the blank: the reported Percent Control of COc1ccc(COc2ccc(Cc3cnc(N)nc3N)cc2OC)cc1 [GW632580X] is ____.
100

Fill in the blank: the reported Percent Control of NS(=O)(=O)c1ccc(N/N=C2\C(=O)Nc3ccc(-c4cnco4)cc32)cc1 is ____.
87

Fill in the blank: the reported Percent Control of COc1cc(C)c(N(C)C(=O)CN(C)C)cc1Nc1nc(Nc2cccc(F)c2C(N)=O)c2cc[nH]c2n1 is ____.
100

Fill in the blank: the reported Percent Control of CN1CCN(C(=O)c2ccc(NC(=O)Nc3ccc(N(C)c4ccnc(Nc5ccc(CS(C)(=O)=O)cc5)n4)cc3)cc2)CC1.Cl [GW830263A] is ____.
92

* * *

system: RPS6KA5(Kin.Dom.1-N-terminal); details: Compound Concentration (nM):1000
ENDPOINT_LABEL: Percent Control (%)
Express the result in % but write the number alone.

Fill in the blank: the reported Percent Control of Cl.O=C(Nc1ccc(Oc2ccc3[nH]c(NC(=O)c4ccccc4)nc3c2)cc1)Nc1cc(C(F)(F)F)ccc1F [GW709042A] is ____.
100

Fill in the blank: the reported Percent Control of COc1ccc2c(-c3ccnc(Nc4cccc(OC(F)(F)F)c4)n3)cnn2n1 [GW810372X] is ____.
100

Fill in the blank: the reported Percent Control of COc1ccccc1-c1cc(/C=C2\C(=O)Nc3ncc(Br)cc32)cc(Br)c1O [GW442130X] is ____.
76

Fill in the blank: the reported Percent Control of CCS(=O)(=O)c1ccc(OC)c(Nc2ncc(-c3cccc(F)c3)o2)c1 [GW621970X] is ____.
100

Fill in the blank: the reported Percent Control of Cl.O=C(Nc1ccc(Oc2ccc3[nH]c(NC(=O)c4ccco4)nc3c2)cc1)Nc1cc(C(F)(F)F)ccc1F [GW683134A] is ____.
95

Fill in the blank: the reported Percent Control of Cl.c1ccc(Cc2nc3ccc(Nc4ncnc5ccccc45)cc3[nH]2)cc1 [GR269666A] is ____.
100

Fill in the blank: the reported Percent Control of CC1=C(C(=O)Nc2ccc3[nH]ncc3c2)C(c2ccc(Cl)c(Cl)c2)CC(=O)N1 (centres unmarked) [GSK299115A] is ____.
100

Fill in the blank: the reported Percent Control of COc1ccc2cc(-c3c(-c4ccncc4)nc(-c4ccc(S(C)(=O)=O)cc4C)n3C)ccc2c1 is ____.
95
